# System: Jurkat
# Assay Info: cell count relative to DMSO control (fraction of control); higher = more cells (less growth inhibition)
# Condition Summary: 48 h
Where a name gives a salt, the structure may show the parent alone.
Label not fulfilled if cell count falls below 0.7; label fulfilled in every other case.

[[record]]
molecule = "CNC(=C[N+](=O)[O-])NCCSCc1csc(CN(C)C)n1 [Nizatidine] (concentration: 25 µM)"
group_label = "fulfilled"

[[record]]
molecule = "CCOC(=O)O[C@]1(C(=O)OCCl)CC[C@H]2[C@@H]3CCC4=CC(=O)C=C[C@]4(C)[C@H]3[C@@H](O)C[C@@]21C [Loteprednol Etabonate] (concentration: 25 µM)"
group_label = "fulfilled"


Would you say CNC[C@H](O)c1cccc(O)c1 [Phenylephrine] (concentration: 25 µM) shows cell count at minimum 0.7?
fulfilled

Would you say O=C1C(=O)c2ccccc2C(O)=C1C1CCC(c2ccc(Cl)cc2)CC1 (stereo not given) [Atovaquone] (concentration: 25 µM) shows cell count at minimum 0.7?
not fulfilled

Would you say CCCNCC(O)COc1ccccc1C(=O)CCc1ccccc1 (stereo not given) [Propafenone·HCl] (concentration: 25 µM) shows cell count at minimum 0.7?
not fulfilled

Would you say Cc1cc2c(s1)Nc1ccccc1N=C2N1CCN(C)CC1 [Olanzapine] (concentration: 25 µM) shows cell count at minimum 0.7?
fulfilled

Would you say OC[C@@H](O)[C@@H](O)[C@H](O)[C@H](O)CO [Mannitol] (concentration: 25 µM) shows cell count at minimum 0.7?
fulfilled

Would you say CCc1nc(N)nc(N)c1-c1ccc(Cl)cc1 [Pyrimethamine] (concentration: 25 µM) shows cell count at minimum 0.7?
not fulfilled

Would you say CCCc1nc(C(C)(C)O)c(C(=O)O)n1Cc1ccc(-c2ccccc2-c2nnn[nH]2)cc1 [Olmesartan] (concentration: 25 µM) shows cell count at minimum 0.7?
fulfilled

Would you say O=C(O)CCCCCCCC(=O)O [Azelaic Acid] (concentration: 25 µM) shows cell count at minimum 0.7?
not fulfilled

Would you say Nc1ccc(C(=O)NCC(=O)O)cc1 [Aminohippurate·Na] (concentration: 25 µM) shows cell count at minimum 0.7?
fulfilled

Would you say CN1CC(=O)N2[C@H](c3ccc4c(c3)OCO4)c3[nH]c4ccccc4c3C[C@@H]2C1=O [Tadalafil] (concentration: 25 µM) shows cell count at minimum 0.7?
not fulfilled

Would you say CN(C)CCC[C@@]1(c2ccc(F)cc2)OCc2cc(C#N)ccc21 [Escitalopram] (concentration: 25 µM) shows cell count at minimum 0.7?
not fulfilled

Would you say NC(=O)N1c2ccccc2C=Cc2ccccc21 [Carbamazepine] (concentration: 25 µM) shows cell count at minimum 0.7?
fulfilled

====

# Test system: Jurkat
# Assay Info: cell count relative to DMSO control (fraction of control); higher = more cells (less growth inhibition)
# Condition Summary: 48 h
Where a name gives a salt, the structure may show the parent alone.
Label no if cell count falls below 0.6; label yes in every other case.

[[record]]
compound = "CCCN[C@H]1CCc2nc(N)sc2C1 [Pramipexole Dihydrochloride Monohydrate] (concentration: 25 µM)"
tested_target = "Jurkat"
group_label = "yes"

[[record]]
compound = "CCCc1nc2c(C)cc(-c3nc4ccccc4n3C)cc2n1Cc1ccc(-c2ccccc2C(=O)O)cc1 [Telmisartan] (concentration: 25 µM)"
tested_target = "Jurkat"
group_label = "yes"

[[record]]
compound = "CN(C)CCOC(c1ccccc1)c1ccccc1.Cn1c(=O)c2[nH]c(Cl)nc2n(C)c1=O [Dimenhydrinate] (concentration: 25 µM)"
tested_target = "Jurkat"
group_label = "no"

[[record]]
compound = "CC(=O)CC(c1ccccc1)c1c(O)c2ccccc2oc1=O (configuration not stated) [Warfarin·Na] (concentration: 25 µM)"
tested_target = "Jurkat"
group_label = "yes"

[[record]]
compound = "C[N+](C)(C)CC(=O)O [Betaine] (concentration: 25 µM)"
tested_target = "Jurkat"
group_label = "no"


Let us examine a further case.
Would you say CC(C[N+](C)(C)C)OC(N)=O (configuration not stated) [Bethanechol Chloride] (concentration: 25 µM) shows cell count at minimum 0.6?
no

====

Recorded cell count values for a group of compounds are listed next.
# Tested on: Jurkat
# Assay Info: cell count relative to DMSO control (fraction of control); higher = more cells (less growth inhibition)
# Condition Summary: 48 h
Structures can show the parent of a compound that is named as a salt.
Please respond with just the number, no unit label.

Examples with answers:
[[record]]
compound = "Cc1cccc(C)c1OCC(C)N (stereo not drawn) [Mexiletine·HCl] (concentration: 25 µM)"
measurement_label = "cell count"
experimental_result = 0.719

[[record]]
compound = "COc1c(C)c2c(c(O)c1C/C=C(\\C)CCC(=O)OCCN1CCOCC1)C(=O)OC2 [Mycophenolate Mofetil] (concentration: 25 µM)"
measurement_label = "cell count"
experimental_result = 0.203

[[record]]
compound = "COc1ccc([C@@H]2Sc3ccccc3N(CCN(C)C)C(=O)[C@@H]2OC(C)=O)cc1 [Diltiazem·HCl] (concentration: 25 µM)"
measurement_label = "cell count"
experimental_result = 0.359

[[record]]
compound = "OCCOCCN1CCN(C(c2ccccc2)c2ccc(Cl)cc2)CC1 (stereo not drawn) [Hydroxyzine Dihydrochloride] (concentration: 25 µM)"
measurement_label = "cell count"
experimental_result = 0.968

[[record]]
compound = "OC(CCN1CCCCC1)(c1ccccc1)C1CC2C=CC1C2 (stereo not drawn) [Biperiden·HCl] (concentration: 25 µM)"
measurement_label = "cell count"
experimental_result = 0.654


State its cell count for this compound: CC(C)NCC(O)COc1ccc(COCCOC(C)C)cc1 (stereo not drawn) [Bisoprolol Fumarate] (concentration: 25 µM)
0.732

State its cell count for this compound: O=C(O)Cc1ccccc1Nc1c(Cl)cccc1Cl [Diclofenac·Na Salt] (concentration: 25 µM)
0.725

State its cell count for this compound: OC[C@H]1O[C@@H](O[C@@H]2[C@@H](CO)OC(O)(CO)[C@H]2O)[C@H](O)[C@@H](O)[C@H]1O (mixture of isomers) [Lactulose] (concentration: 25 µM)
0.56

State its cell count for this compound: C[C@]12CCC3=C4CCC(=O)C=C4CC[C@H]3[C@@H]1CC[C@@]2(O)CC#N [Dienogest] (concentration: 25 µM)
0.827

State its cell count for this compound: CC(C)(C)NCC(O)c1cc(O)cc(O)c1 (stereo not drawn) [Terbutaline Hemisulfate] (concentration: 25 µM)
0.503

State its cell count for this compound: CN(C)CCOC(c1ccc(Cl)cc1)c1ccccn1 (stereo not drawn) [Carbinoxamine Maleate] (concentration: 25 µM)
0.735

State its cell count for this compound: O=C(O)CCNC(=O)c1ccc(/N=N/c2ccc(O)c(C(=O)O)c2)cc1 [Balsalazide] (concentration: 25 µM)
0.669

State its cell count for this compound: COc1ccc(CC2c3cc(OC)c(OC)cc3CC[N+]2(C)CCC(=O)OCCCCCOC(=O)CC[N+]2(C)CCc3cc(OC)c(OC)cc3C2Cc2ccc(OC)c(OC)c2)cc1OC (stereo not drawn) [Atracurium Besylate] (concentration: 25 µM)
0.264

====

# System: Jurkat
# Assay Info: cell count relative to DMSO control (fraction of control); higher = more cells (less growth inhibition)
# Condition Summary: 48 h
Label criterion not met if cell count falls below 0.8; label criterion met in every other case.

Would you say CCC1(C)CC(=O)NC1=O (stereo unspecified) [Ethosuximide] (concentration: 25 µM) shows cell count at minimum 0.8?
criterion met

Would you say COc1cc2ncnc(Nc3ccc(F)c(Cl)c3)c2cc1OCCCN1CCOCC1 [Gefitinib] (concentration: 2.5 µM) shows cell count at minimum 0.8?
criterion not met

Would you say COc1cc(NC(C)CCCN)c2ncccc2c1 (stereo unspecified) [Primaquine Phosphate] (concentration: 25 µM) shows cell count at minimum 0.8?
criterion not met

Would you say C[C@]12CCC(=O)C=C1[C@@H]1C[C@@H]1[C@H]1[C@@H]3[C@@H]4C[C@@H]4[C@@]4(CCC(=O)O4)[C@@]3(C)CC[C@@H]12 [Drospirenone] (concentration: 25 µM) shows cell count at minimum 0.8?
criterion not met

Would you say Nc1ccc(C(=O)O)c(O)c1 [4-Aminosalicylic Acid] (concentration: 25 µM) shows cell count at minimum 0.8?
criterion met

Would you say C[C@H]1O[C@H](O[C@H]2[C@H](O)[C@@H](O)[C@@H](O[C@@H]([C@H](O)[C@@H](O)C=O)[C@H](O)CO)O[C@@H]2CO)[C@H](O)[C@@H](O)[C@@H]1N[C@H]1C=C(CO)[C@@H](O)[C@H](O)[C@H]1O [Acarbose] (concentration: 25 µM) shows cell count at minimum 0.8?
criterion met

====

# Test system: Jurkat
# Assay Info: mean cell size (FSC-A) relative to DMSO control (fraction of control); higher = larger cells
# Condition Summary: 48 h
Structures can show the parent of a compound that is named as a salt.
Measurement Label: mean cell size
Please respond with just the number, no unit label.

[[record]]
compound = "C[C@H](N)[C@H](O)c1cccc(O)c1 [Metaraminol Bitartrate] (concentration: 25 µM)"
measurement_label = "mean cell size"
experimental_result = 1.04

[[record]]
compound = "COc1cc2nc(N3CCN(C(=O)C4COc5ccccc5O4)CC3)nc(N)c2cc1OC (centres undefined) [Doxazosin Mesylate] (concentration: 2.5 µM)"
measurement_label = "mean cell size"
experimental_result = 1.01

[[record]]
compound = "Nc1nc2c(ncn2COC(CO)CO)c(=O)[nH]1 [Ganciclovir] (concentration: 25 µM)"
measurement_label = "mean cell size"
experimental_result = 1.02


Let us move to another entry and its mean cell size.
# assay system Jurkat: give mean cell size of CC(=O)OCC(=O)[C@@]1(O)CC[C@H]2[C@@H]3CCC4=CC(=O)CC[C@]4(C)[C@H]3[C@@H](O)C[C@@]21C [Hydrocortisone Acetate] (concentration: 25 µM)
0.959
